- measured_target: recombinant PDK-1 (Homo sapiens, UniProt O15530)
- Construct: purchased Upstate (Lake Placid, N.Y.)
- Sequence (O15530 1-556): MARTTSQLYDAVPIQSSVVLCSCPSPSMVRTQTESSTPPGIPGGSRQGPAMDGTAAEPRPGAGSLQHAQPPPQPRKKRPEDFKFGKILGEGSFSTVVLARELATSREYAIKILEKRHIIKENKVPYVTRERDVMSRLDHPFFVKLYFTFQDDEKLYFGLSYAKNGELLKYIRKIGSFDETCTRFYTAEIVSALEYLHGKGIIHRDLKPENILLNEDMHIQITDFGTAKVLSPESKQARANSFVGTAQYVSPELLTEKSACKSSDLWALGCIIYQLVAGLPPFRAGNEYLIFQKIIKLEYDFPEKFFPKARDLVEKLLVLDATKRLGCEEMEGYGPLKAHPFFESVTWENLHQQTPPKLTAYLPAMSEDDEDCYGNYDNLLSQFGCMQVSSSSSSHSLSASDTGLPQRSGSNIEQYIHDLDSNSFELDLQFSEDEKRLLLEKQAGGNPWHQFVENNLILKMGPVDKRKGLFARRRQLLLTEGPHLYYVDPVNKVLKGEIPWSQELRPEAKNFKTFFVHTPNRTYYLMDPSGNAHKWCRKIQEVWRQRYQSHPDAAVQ
- assay_remarks: PDK-1 kinase activity (Upstate kit, SGK-coupled, cell-free)
- Assay type: biochemical
- study_conditions: inhibiting recombinant PDK-1 kinase activity; read-out: IC50 PDK-1
pIC50: −log10 of the molar value.
reported_property: pIC50

INSERT INTO results (molecule, recorded_value) VALUES
  ('NS(=O)(=O)c1ccc(-n2nc(C(F)(F)F)cc2-c2ccc3c(c2)Cc2ccccc2-3)cc1 [Compound 57]', 4.80),
  ('NS(=O)(=O)c1ccc(-n2nc(C(F)(F)F)cc2-c2ccc(-c3ccccc3)cc2)cc1 [Compound 45]', 4.68),
  ('N#Cc1ccc(-n2nc(C(F)(F)F)cc2-c2ccc3c(ccc4ccccc43)c2)cc1 [Compound 62]', 4.35),
  ('NS(=O)(=O)c1ccc(-n2nc(C(F)(F)F)cc2-c2ccc(-c3cccc(Cl)c3Cl)cc2)cc1 [Compound 48]', 4.64),
  ('NS(=O)(=O)c1ccc(-n2nc(C(F)(F)F)cc2-c2c3ccccc3cc3ccccc23)cc1 [Compound 58]', 4.92),
  ('NC(=O)c1ccc(-n2nc(C(F)(F)F)cc2-c2ccc3c(ccc4ccccc43)c2)cc1 [Compound 61]', 4.92),
  ('Cc1ccc(-c2cc(C(F)(F)F)nn2-c2ccc(S(N)(=O)=O)cc2)cc1 [Comparative Compound, reference compound]', 4.32),
  ('CCCCc1ccc(-c2ccc(-c3cc(C(F)(F)F)nn3-c3ccc(S(N)(=O)=O)cc3)cc2)cc1 [Compound 54]', 4.49),
  ('NS(=O)(=O)c1ccc(-n2nc(C(F)(F)F)cc2-c2ccc(-c3ccc(CBr)cc3)cc2)cc1 [Compound 52]', 4.70),
  ('Cc1cc(C)cc(-c2ccc(-c3cc(C(F)(F)F)nn3-c3ccc(S(N)(=O)=O)cc3)cc2)c1 [Compound 53]', 4.77),
  ('NN=Cc1ccc(-n2nc(C(F)(F)F)cc2-c2ccc3c(ccc4ccccc43)c2)cc1 [Compound 66]', 4.80),
  ('CC(C)(C)c1ccc(-c2ccc(-c3cc(C(F)(F)F)nn3-c3ccc(S(N)(=O)=O)cc3)cc2)cc1 [Compound 55]', 4.49),
  ('NC(=O)Nc1ccc(-n2nc(C(F)(F)F)cc2-c2ccc3c(ccc4ccccc43)c2)cc1 [Compound 72]', 4.40),
  ('NCC(=O)Nc1ccc(-n2nc(C(F)(F)F)cc2-c2ccc3c(ccc4ccccc43)c2)cc1 [Compound 70]', 5.30),
  ('N#CCc1ccc(-n2nc(C(F)(F)F)cc2-c2ccc3c(ccc4ccccc43)c2)cc1 [Compound 67]', 4.38);
